- Condition: in n-butanol, 308.15 K
Measurement Label: solubility (mole fraction)

> print(dat)
                                   compound  test.result
1  COC(=O)C1=C(C)NC(C)=C(C(=O)OCC(C)C)C1c1ccccc1[N+](=O)[O-] (stereo unspecified)       0.0149

---

- Condition: in cyclohexane, 313.15 K
Measurement Label: solubility (mole fraction)

> print(dat)
                                   molecule  test.result
1  COC(=O)C1=C(C)NC(C)=C(C(=O)OCC(C)C)C1c1ccccc1[N+](=O)[O-] (stereo unspecified)     0.000198

---

- Condition: in acetonitrile, 318.15 K
Measurement Label: solubility (mole fraction)

> print(dat)
                                   compound           measurement.label  test.result
1  COC(=O)C1=C(C)NC(C)=C(C(=O)OCC(C)C)C1c1ccccc1[N+](=O)[O-] (stereo unspecified)  solubility (mole fraction)       0.0317

---

- Condition: in cyclohexane, 293.15 K
Measurement Label: solubility (mole fraction)

> print(dat)
                                   compound           measurement.label  test.result
1  COC(=O)C1=C(C)NC(C)=C(C(=O)OCC(C)C)C1c1ccccc1[N+](=O)[O-] (stereo unspecified)  solubility (mole fraction)      9.1e-05

---

- Condition: in cyclohexane, 288.15 K
Measurement Label: solubility (mole fraction)

> print(dat)
                                   compound  test.result
1  COC(=O)C1=C(C)NC(C)=C(C(=O)OCC(C)C)C1c1ccccc1[N+](=O)[O-] (stereo unspecified)      7.3e-05

---

- Condition: in isopropanol, 283.15 K
Measurement Label: solubility (mole fraction)

> print(dat)
                                   molecule  test.result
1  COC(=O)C1=C(C)NC(C)=C(C(=O)OCC(C)C)C1c1ccccc1[N+](=O)[O-] (stereo unspecified)      0.00563

---

- Condition: in isopropanol, 288.15 K
Measurement Label: solubility (mole fraction)

> print(dat)
                                   compound  test.result
1  COC(=O)C1=C(C)NC(C)=C(C(=O)OCC(C)C)C1c1ccccc1[N+](=O)[O-] (stereo unspecified)      0.00669

---

- Condition: in cyclohexane, 298.15 K
Measurement Label: solubility (mole fraction)

> print(dat)
                                   compound  test.result
1  COC(=O)C1=C(C)NC(C)=C(C(=O)OCC(C)C)C1c1ccccc1[N+](=O)[O-] (stereo unspecified)     0.000111

---

- Condition: in ethanol, 293.15 K
Measurement Label: solubility (mole fraction)

> print(dat)
                                   compound           measurement.label  test.result
1  COC(=O)C1=C(C)NC(C)=C(C(=O)OCC(C)C)C1c1ccccc1[N+](=O)[O-] (stereo unspecified)  solubility (mole fraction)      0.00529

---

- Condition: in acetonitrile, 278.15 K
Measurement Label: solubility (mole fraction)

> print(dat)
                                   compound  test.result
1  COC(=O)C1=C(C)NC(C)=C(C(=O)OCC(C)C)C1c1ccccc1[N+](=O)[O-] (stereo unspecified)      0.00849

---

- Condition: in ethyl acetate, 313.15 K
Measurement Label: solubility (mole fraction)

> print(dat)
                                   molecule  test.result
1  COC(=O)C1=C(C)NC(C)=C(C(=O)OCC(C)C)C1c1ccccc1[N+](=O)[O-] (stereo unspecified)       0.0401

---

- Condition: in water, 293.15 K
Measurement Label: solubility (mole fraction)

> print(dat)
                                   compound           measurement.label  test.result
1  COC(=O)C1=C(C)NC(C)=C(C(=O)OCC(C)C)C1c1ccccc1[N+](=O)[O-] (stereo unspecified)  solubility (mole fraction)        9e-06

---

- Condition: in toluene, 303.15 K
Measurement Label: solubility (mole fraction)

> print(dat)
                                   compound  test.result
1  COC(=O)C1=C(C)NC(C)=C(C(=O)OCC(C)C)C1c1ccccc1[N+](=O)[O-] (stereo unspecified)      0.00366

---

- Condition: in n-butanol, 298.15 K
Measurement Label: solubility (mole fraction)

> print(dat)
                                   molecule  test.result
1  COC(=O)C1=C(C)NC(C)=C(C(=O)OCC(C)C)C1c1ccccc1[N+](=O)[O-] (stereo unspecified)       0.0111

---

- Condition: in n-propanol, 283.15 K
Measurement Label: solubility (mole fraction)

> print(dat)
                                   molecule           measurement.label  test.result
1  COC(=O)C1=C(C)NC(C)=C(C(=O)OCC(C)C)C1c1ccccc1[N+](=O)[O-] (stereo unspecified)  solubility (mole fraction)      0.00455

---

- Condition: in ethanol, 298.15 K
Measurement Label: solubility (mole fraction)

> print(dat)
                                   compound           measurement.label  test.result
1  COC(=O)C1=C(C)NC(C)=C(C(=O)OCC(C)C)C1c1ccccc1[N+](=O)[O-] (stereo unspecified)  solubility (mole fraction)      0.00648
